Study System: recombinant SARS-CoV-2 Omicron BA.1 RBD
Protocol: BLI
Measured Endpoint: pKd
Formally, pKd is defined as -log10 of the concentration c, with c in mol/L.

Given ADI-75738 (antibody, V domains shown) VH: QVQLQQWGAGLLKPSETLSLTCGVHDGAFSGYFWNWIRQSPVKGLEWIGEVTHSGNTNYNPSLKSRVTMSVDASKNEFSLNLTSVTAADTAVYYCARGDFYSTRLAFDVWGQGSMVTVSS VL: EIVLTQSPATLSLSPGERATLSCRASQSVSTYLAWYQQRPGQAPRLLIYDASNRATGIPARFSGSGSETDFTLTISSLEPEDFAVYYCQQRSNWLTFGGGTKVEIK , state its recorded pKd.
8.56

Next binder up: ADI-75754 (antibody, V domains shown) VH: QVQLVQSGGDLVQPGGSLRLSCVASGFTFSNYEMNWVRQGPGKGLEWISYISTSGSTYYYADSVKGRFTISRDNARNSLYLQMDSLRVEDTAIYYCLTHPQPQYVRPTQVVWFDPWGQGTLVTVSS VL: EMTMTQSPGTLSLSPGERATLSCRASESVSSEYLAWHQQRPGQAPRLLIYGASSRPTGIPDRFSGSGSGTDFTLTISRLEPEDFAVYYCHQFASAPITFGQGTRLEIK
7.43

ADI-75859 (antibody, V domains shown) VH: QVQLVQSGGGVGQPGRSLRLSCAASGFTFGHYGMHWVRQAPGKGLEWVAAIIYDGSDKQYADSVKGRFTISRDNSKNTVYLQMNSLRPEDTAIYFCAKLGGLYCSGGNCFSGYFDYWGQGTLVTVSS VL: ETTLTQSPSSLSASVGDRVTITCRASQGISNSLAWYQQKPGKAPKLLLYAASTLESGVPSRFSGSGSGTDFTLTIASLQPEDFATYYCQQYYSSVRFTFGQGTILDLN ?
7.88

Again, but for ADI-75700 (antibody, V domains shown) VH: QVQLQQWGAGLLKPSETLSLTCGVYDGSFSDYFWNWIRQPPGKGLEWIGELTHTGSTNYNPSLKSRVTILADTSKSQFSLNLSSVTAADTAVYYCARGDFYSTRLAFDLWGQGTTVTVSS VL: EIALTQSPATLSLSPGERATLSCRASQSVSTYLAWYQQKPGQAPRLLIYDASKRATGIPARFNGSGSGTDFTLTISSLEPEDFAVYYCQQRSTWPTFGGGTKVDIK
8.15

Values were extracted from patent US20250223339A1.
